Cited source for all entries: ChEMBL document CHEMBL1130915

target: Protein farnesyltransferase (Homo sapiens, UniProt P49354+P49356); assay: Inhibition of human recombinant farnesyltransferase
Experimental endpoint: IC50 (µM)
Write the value in µM as a bare number.

Molecule	IC50 [µM]
CC(=O)O[C@H]1CC[C@]2(C)[C@H]3Cc4c(O)cc5c(c4O[C@@]3(C)CC[C@H]2C1(C)C)COC5=O [KAMPANOL A]	13
CC(=O)O[C@H]1CC[C@]2(C)[C@H]3Cc4c(O)cc(CO)c(CO)c4O[C@@]3(C)CC[C@H]2C1(C)C	460

Problem: Can you share its IC50? I mean this molecule: COC1OC(OC)c2c1cc(O)c1c2O[C@@]2(C)CC[C@H]3C(C)(C)[C@@H](OC(C)=O)CC[C@]3(C)[C@H]2C1 (some centres undefined)
Result: 7

Problem: Can you share its IC50? I mean this molecule: `CC(=O)O[C@H]1CC[C@]2(C)[C@H]3Cc4c(O)cc(C=O)c(C=O)c4O[C@@]3(C)CC[C@H]2C1(C)C`
Result: 560
